# target_under_test: bovine trypsin (Bos taurus)
# Sequence (P00760 24-246): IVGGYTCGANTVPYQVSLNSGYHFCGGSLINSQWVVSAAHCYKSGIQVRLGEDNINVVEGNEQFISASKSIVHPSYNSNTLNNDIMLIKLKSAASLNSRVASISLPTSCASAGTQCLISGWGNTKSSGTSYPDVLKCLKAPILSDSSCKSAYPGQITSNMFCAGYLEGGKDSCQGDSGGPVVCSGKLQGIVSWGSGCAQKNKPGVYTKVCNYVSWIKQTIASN
# protocol_text: Inactivation rate of bovine trypsin, incubation method
# Format: biochemical
# details: Table I; 0.1M Hepes, 0.01M CaCl2 pH 7.5, 25° C., 2% DMSO, substrate Z--Arg--SBzl; NI = no inhibition after 25 min
readout_label: kobsd /[I] bovine trypsin

molecule="N=C(N)c1ccc(C(NC(=O)[C@@H]2CCCN2C(=O)CC(c2ccccc2)c2ccccc2)P(=O)(Oc2ccccc2)Oc2ccccc2)cc1 (some centres unmarked)" target_under_test="bovine trypsin (Bos taurus)" readout_label="kobsd /[I] bovine trypsin" result="2660 ± 40 M⁻¹ s⁻¹"
molecule="N=C(N)c1ccc(C(NC(=O)C2CCCN2C(=O)CNS(=O)(=O)Cc2ccccc2)P(=O)(Oc2ccccc2)Oc2ccccc2)cc1 (mixture of isomers)" target_under_test="bovine trypsin (Bos taurus)" readout_label="kobsd /[I] bovine trypsin" result="37060 ± 986 M⁻¹ s⁻¹"
molecule="C[C@H](NC(=O)[C@@H]1CCCN1C(=O)OCc1ccccc1)C(=O)NC(c1ccc(C(=N)N)cc1)P(=O)(Oc1ccccc1)Oc1ccccc1 (some centres unmarked)" target_under_test="bovine trypsin (Bos taurus)" readout_label="kobsd /[I] bovine trypsin" result="240 ± 10 M⁻¹ s⁻¹"
molecule="C[C@H](NC(=O)CCC(=O)O)C(=O)N[C@@H](C)C(=O)NC(c1ccc(C(=N)N)cc1)P(=O)(Oc1ccccc1)Oc1ccccc1 (some centres unmarked)" target_under_test="bovine trypsin (Bos taurus)" readout_label="kobsd /[I] bovine trypsin" result="640 ± 36 M⁻¹ s⁻¹"
molecule="C[C@H](NC(=O)OCc1ccccc1)C(=O)N[C@@H](C)C(=O)NC(c1ccc(C(=N)N)cc1)P(=O)(Oc1ccccc1)Oc1ccccc1 (some centres unmarked)" target_under_test="bovine trypsin (Bos taurus)" readout_label="kobsd /[I] bovine trypsin" result="3620 ± 588 M⁻¹ s⁻¹"
molecule="Cl.N=C(N)c1ccc(C(NC(=O)OCc2ccccc2)P(=O)(Oc2ccccc2)Oc2ccccc2)cc1 (centres unmarked)" target_under_test="bovine trypsin (Bos taurus)" readout_label="kobsd /[I] bovine trypsin" result="2000 M⁻¹ s⁻¹"
molecule="C[C@@H](O)[C@H](NC(=O)OCc1ccccc1)C(=O)NC(c1ccc(C(=N)N)cc1)P(=O)(Oc1ccccc1)Oc1ccccc1 (some centres unmarked)" target_under_test="bovine trypsin (Bos taurus)" readout_label="kobsd /[I] bovine trypsin" result="97 M⁻¹ s⁻¹"
molecule="CC(C)(C)OC(=O)N[C@H](Cc1ccccc1)C(=O)N1CCC[C@H]1C(=O)NC(c1ccc(C(=N)N)cc1)P(=O)(Oc1ccccc1)Oc1ccccc1.Cl (some centres unmarked)" target_under_test="bovine trypsin (Bos taurus)" readout_label="kobsd /[I] bovine trypsin" result="130 M⁻¹ s⁻¹"
molecule="CC(NC(=O)OCc1ccccc1)C(=O)NC(c1ccc(C(=N)N)cc1)P(=O)(Oc1ccccc1)Oc1ccccc1 (mixture of isomers)" target_under_test="bovine trypsin (Bos taurus)" readout_label="kobsd /[I] bovine trypsin" result="1850 ± 85 M⁻¹ s⁻¹"
molecule="N=C(N)c1ccc(C(NC(=O)C2CCCN2C(=O)CCc2ccccc2)P(=O)(Oc2ccccc2)Oc2ccccc2)cc1 (centres unmarked)" target_under_test="bovine trypsin (Bos taurus)" readout_label="kobsd /[I] bovine trypsin" result="1520 ± 27 M⁻¹ s⁻¹"
molecule="CC(C)CC(NC(=O)OCc1ccccc1)C(=O)NC(c1ccc(C(=N)N)cc1)P(=O)(Oc1ccccc1)Oc1ccccc1 (mixture of isomers)" target_under_test="bovine trypsin (Bos taurus)" readout_label="kobsd /[I] bovine trypsin" result="50 ± 1 M⁻¹ s⁻¹"
